The values you see were collected from ChEMBL document CHEMBL3822420.

- Test system: Staphylococcus epidermidis
- ASSAY TEXT: Antibacterial activity against methicillin-resistant Staphylococcus epidermidis 14-4
- Format: functional
# note: exactly 0.5 µg/mL is not below, so it is NO; use YES for MIC strictly under it

Reference set, count: 2
C[C@H]1COc2c(N3CCN(C)CC3)c(F)cc3c(=O)c(C(=O)O)cn1c23.C[C@H]1COc2c(N3CCN(C)CC3)c(F)cc3c(=O)c(C(=O)O)cn1c23.O	NO
CCCC[C@H](CN(O)C=O)C(=O)N1CCC[C@H]1C(=O)Nc1ccc(F)c[n+]1[O-]	YES

Find out if reported MIC for CCCC[C@H](CN(O)C=O)C(=O)N1CC2(CC2)C[C@H]1C(=O)Nc1ncc(C)s1 is less than 0.5 µg/mL
YES

Quick one: CCCC[C@H](CN(O)C=O)C(=O)N1CC2(CC2)C[C@H]1c1nc2ccccc2[nH]1
NO

Quick one: CCCC[C@H](CN(O)C=O)C(=O)N1CC2(CC2)C[C@H]1c1nnc(-c2ccccn2)o1
NO

Quick one: CCCC[C@H](CN(O)C=O)C(=O)N1CC2(CC2)C[C@H]1C(=O)Nc1cc(C(C)(C)C)on1
YES
